- System Tested: Salicylate synthase (Mycobacterium tuberculosis (strain CDC 1551 / Oshkosh)) (UniProt P9WFX0)
- Sequence (P9WFX0 whole entry, looked up): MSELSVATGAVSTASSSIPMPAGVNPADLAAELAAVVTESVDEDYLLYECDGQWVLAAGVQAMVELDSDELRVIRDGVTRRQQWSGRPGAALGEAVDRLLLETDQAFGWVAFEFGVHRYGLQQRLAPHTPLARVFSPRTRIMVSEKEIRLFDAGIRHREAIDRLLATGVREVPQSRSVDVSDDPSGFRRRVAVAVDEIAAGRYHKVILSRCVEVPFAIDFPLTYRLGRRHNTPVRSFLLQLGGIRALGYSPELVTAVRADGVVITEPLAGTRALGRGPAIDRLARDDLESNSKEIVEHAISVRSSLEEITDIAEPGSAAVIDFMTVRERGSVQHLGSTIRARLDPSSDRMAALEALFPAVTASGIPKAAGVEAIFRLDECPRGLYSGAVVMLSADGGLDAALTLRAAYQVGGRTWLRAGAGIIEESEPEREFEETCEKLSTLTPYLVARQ
- Test Name: inhibitors of M. tuberculosis MbtI – biochemical, fluorescence intensity, primary screen (AID 493033)
- Condition Label: purified MbtI enzyme, fluorescence intensity read-out, stronger effect = higher value, concentration not given here
Out of some 100,000 compounds screened, about 930 (0.93%) were called active. Shown is part of a subset that was picked to be rich in actives.
Measured Quantity: inhibition

Answered examples (3):
[[record]]
compound = "CCn1c(C(C)C)n[nH]c1=S"
value_observed = "2.75% (inactive)"

[[record]]
compound = "CCOc1ccc(OCCBr)cc1"
value_observed = "-5.55% (inactive)"

[[record]]
compound = "O=C1CSc2ccccc2N1Cc1ccc(Cl)cc1"
value_observed = "-5.75% (inactive)"


Sample "CNC(=O)Cc1nnc(-c2ccc(C)cc2)o1" — what was its inhibition?
-6.1% (inactive)

Sample "O=C(CS(=O)(=O)c1ccccc1)Nc1ccccc1O" — what was its inhibition?
-1.55% (inactive)

Sample "CC(C)c1n[nH]c(=S)n1N" — what was its inhibition?
96.5% (active)

Sample "Cc1noc(C)c1COc1ccc(C(=O)OCCN2C(=O)c3ccccc3C2=O)cc1" — what was its inhibition?
-17.5% (inactive)

Sample NC1=NC(=O)C(Cc2cccc(Cl)c2)S1 (configuration not stated) — what was its inhibition?
0.55% (inactive)

Sample "NCCc1ccc(Cl)cc1" — what was its inhibition?
-11.3% (inactive)

Sample "C=CCn1c(SCC(=O)c2ccc(N(C)S(C)(=O)=O)cc2)nnc1C1CCCCC1" — what was its inhibition?
0.8% (inactive)

Sample "O=C(CCn1c(=O)oc2ccccc21)Sc1ccc(C(F)(F)F)cc1" — what was its inhibition?
70.7% (active)
